Molecular target: T1, CRF2R
T1 sequence (Q13324 whole entry, species assumed, looked up): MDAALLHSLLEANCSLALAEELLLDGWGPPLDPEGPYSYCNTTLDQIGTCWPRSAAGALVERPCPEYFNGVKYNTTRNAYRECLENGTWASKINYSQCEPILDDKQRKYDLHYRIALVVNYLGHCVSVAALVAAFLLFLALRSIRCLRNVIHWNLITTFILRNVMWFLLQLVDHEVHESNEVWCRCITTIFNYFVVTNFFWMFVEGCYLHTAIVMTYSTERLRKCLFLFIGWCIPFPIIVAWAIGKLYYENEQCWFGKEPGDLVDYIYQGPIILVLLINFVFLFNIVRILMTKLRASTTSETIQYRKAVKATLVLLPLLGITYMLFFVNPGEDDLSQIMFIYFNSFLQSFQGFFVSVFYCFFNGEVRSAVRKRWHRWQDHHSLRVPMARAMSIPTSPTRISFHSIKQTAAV
Assay: cell-based or functional assay
Ends that are not written are not given here.
Readout Label: CRF2R EC50 (nM)
Your answer should be a plain number; it is taken to be in nM.

Examples with their reported CRF2R EC50 follow.
PSLSIDLPLLLLRTLLELEKTQSQRERAEQNARIFARV-NH2 [SEQ ID NO 333]
9.85
ZGPPISIDLPFQLLRKMIEIEKQEKEKQQAANNALLLDTI (C-terminal amide) [SEQ ID NO 251]
11.8

// below: CRF2R EC50 requested for another binder
The recorded CRF2R EC50 for entry ZGPPISIDLPIYLLRKMIEIEKQEKEKQQAANNALLLATI (C-terminal amide) [SEQ ID NO 237] equals 22.2

Origin of values: patent US20030148958A1
